target: Large T antigen (Simian virus 40); assay: SV40 large T antigen inhibitors, biochemical (AID 1903); details: SV40 large T antigen ATPase/helicase inhibition assay; at 20 µM; hits give high values
Screen size: about 310,000 compounds; about 1,200 (0.39%) were called active. Only a sample is shown. Entries with a potency or affinity are not part of this list.
Measured inhibition, listed per entry.

molecule: O=C(NCC1CCCO1)c1cn(-c2ccccc2)nc1-c1ccc(F)cc1 (stereo not drawn)
system.tested: Large T antigen (Simian virus 40)
inhibition / %: 27.6
//
molecule: Cc1nn(CC(=O)N2CCC(N3CCCCC3)CC2)c(=O)c2c1sc1ccccc12
system.tested: Large T antigen (Simian virus 40)
inhibition / %: 17.6
//
molecule: Cc1cccc(C)c1OCC(=O)NNC(=O)c1ccoc1C
system.tested: Large T antigen (Simian virus 40)
inhibition / %: 2.67
//
molecule: CCOC(=O)C1CCCN(C(=O)Cn2sc3nc(C)cc(C)c3c2=O)C1 (stereo not drawn)
system.tested: Large T antigen (Simian virus 40)
inhibition / %: 73.4
//
molecule: O=C1N/C(=C\c2ccccc2)C(O)=C1C=NCc1ccccc1
system.tested: Large T antigen (Simian virus 40)
inhibition / %: 18.3
//
molecule: COc1ccc(-n2c(C)cc(-c3csc(NC(=O)c4ccc(S(=O)(=O)N(C)C)cc4)n3)c2C)cc1
system.tested: Large T antigen (Simian virus 40)
inhibition / %: 11.5
//
molecule: Cc1cc(C)c2c(=O)n(CC(=O)N3CCC(Cc4ccccc4)CC3)sc2n1
system.tested: Large T antigen (Simian virus 40)
inhibition / %: 3.6
//
molecule: O=C(CCCOc1ccccc1)N1CCN(c2ccccc2)CC1
system.tested: Large T antigen (Simian virus 40)
inhibition / %: -0.15
//
molecule: O=C(CCSc1ccccc1)N1CCN(c2ccccc2)CC1
system.tested: Large T antigen (Simian virus 40)
inhibition / %: 8.73
//
molecule: COc1ccc(C(Nc2ccccn2)c2c(NC(=O)c3ccco3)sc(C)c2C)cc1 (stereo not drawn)
system.tested: Large T antigen (Simian virus 40)
inhibition / %: 14.4
//
molecule: Cc1cc(NS(=O)(=O)c2cccs2)no1
system.tested: Large T antigen (Simian virus 40)
inhibition / %: -2.38
//
molecule: NC(N)=Nc1nc2ccc(Cl)cc2c(=O)[nH]1
system.tested: Large T antigen (Simian virus 40)
inhibition / %: 11.5
//
molecule: COc1ccc(/C=N/NC(=O)c2ccccc2OC)cc1COc1ccc(C)cc1
system.tested: Large T antigen (Simian virus 40)
inhibition / %: 1.22
//
molecule: CCOC(=O)N1CCN(c2ccc(Cl)cc2)CC1
system.tested: Large T antigen (Simian virus 40)
inhibition / %: 24.6
//
molecule: O=C(Nc1ccccc1F)c1ccc(CN2CCc3ccccc3C2)cc1
system.tested: Large T antigen (Simian virus 40)
inhibition / %: -1.04
//
molecule: N#Cc1c(/N=C/c2ccc(-c3ccccc3C(=O)O)o2)sc2c1CCCC2
system.tested: Large T antigen (Simian virus 40)
inhibition / %: 13.3
//
molecule: Cc1cc(C)c(C#N)c(N)n1
system.tested: Large T antigen (Simian virus 40)
inhibition / %: 20.5
//
molecule: Cc1c(Cl)cccc1NC(=O)CN1CCC(NC(=O)C2CCCCC2)CC1
system.tested: Large T antigen (Simian virus 40)
inhibition / %: 8.83
//
molecule: CCC(C)(O)c1[nH]c2ccc(C(=O)OC)cc2c1C (stereo not drawn)
system.tested: Large T antigen (Simian virus 40)
inhibition / %: 2.01
//
molecule: C=CCc1ccc(OCCOCCOc2ccccc2[N+](=O)[O-])c(OC)c1
system.tested: Large T antigen (Simian virus 40)
inhibition / %: -1.8
//
molecule: COC(=O)[C@@H](NC(=O)NCc1ccccc1F)C(C)C
system.tested: Large T antigen (Simian virus 40)
inhibition / %: -2.59
//
molecule: Cc1ccc(OCCC(=O)OCC(=O)N2CCN(S(=O)(=O)c3ccc(C)cc3)CC2)cc1
system.tested: Large T antigen (Simian virus 40)
inhibition / %: 10.3
//
molecule: CCOC(=O)N1CCN(c2ccc([N+](=O)[O-])cc2)CC1
system.tested: Large T antigen (Simian virus 40)
inhibition / %: 5.56

###

target: Large T antigen (Simian virus 40); assay: SV40 large T antigen inhibitors, biochemical (AID 1903); conditions: SV40 large T antigen ATPase/helicase inhibition assay; at 20 µM; hits give high values
In all, about 310,000 compounds went through this assay and about 1,200 (0.39%) were called active. These entries were drawn from the full list. Results with a measured potency or affinity are listed apart.
property.name: inhibition (%)

smiles.structure: COC(=O)c1ccccc1NC(=O)CCCCCn1nnc2ccccc2c1=O
measured.result: 26.9
//
smiles.structure: Cc1csc(NC(=O)c2cc(=O)[nH]c3ccccc23)n1
measured.result: 5.64
//
smiles.structure: COC(CNC(=O)C(=O)Nc1cc2c3c(c1)CCN3C(=O)CC2)OC
measured.result: 6.3
//
smiles.structure: O=C1Cn2c(nc3ccccc32)N1c1ccccc1F
measured.result: 5.32
//
smiles.structure: O=C(Nc1ccc2c(c1)CCC2)c1cccc(OC(F)F)c1
measured.result: 15.1
//
smiles.structure: Cc1ccc(C)c(C(=O)CSc2nnc(C)s2)c1
measured.result: -0.65

###

biological target: Large T antigen (Simian virus 40) (UniProt P03070); experiment: SV40 large T antigen inhibitors, biochemical (AID 1903); conditions: SV40 large T antigen ATPase/helicase inhibition assay; at 20 µM; hits give high values
Sequence (P03070 whole entry, looked up): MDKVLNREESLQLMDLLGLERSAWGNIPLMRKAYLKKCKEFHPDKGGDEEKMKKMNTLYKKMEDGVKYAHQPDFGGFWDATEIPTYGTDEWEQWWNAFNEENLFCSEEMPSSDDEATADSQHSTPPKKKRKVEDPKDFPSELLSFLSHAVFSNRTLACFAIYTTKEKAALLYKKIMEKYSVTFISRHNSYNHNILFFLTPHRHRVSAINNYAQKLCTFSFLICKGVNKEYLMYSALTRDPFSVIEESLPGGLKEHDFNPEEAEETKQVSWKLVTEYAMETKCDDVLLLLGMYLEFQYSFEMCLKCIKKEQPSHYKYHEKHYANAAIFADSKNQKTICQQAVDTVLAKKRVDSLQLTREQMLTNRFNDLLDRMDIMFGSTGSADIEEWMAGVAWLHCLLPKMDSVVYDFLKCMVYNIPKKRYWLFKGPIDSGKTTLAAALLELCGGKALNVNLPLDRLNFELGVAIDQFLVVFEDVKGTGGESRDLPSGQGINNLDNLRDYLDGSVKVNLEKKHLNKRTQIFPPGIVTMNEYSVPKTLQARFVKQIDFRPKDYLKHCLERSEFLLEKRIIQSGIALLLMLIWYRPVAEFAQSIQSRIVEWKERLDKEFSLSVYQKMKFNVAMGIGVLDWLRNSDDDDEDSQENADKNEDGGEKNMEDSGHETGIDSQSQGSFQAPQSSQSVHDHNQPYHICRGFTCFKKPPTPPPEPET
The whole screen tested about 310,000 compounds, of which about 1,200 (0.39%) were called active. These entries were drawn from the full list. Results with a measured potency or affinity are listed apart.

molecule: Nc1cccc(CCc2nc3cc4ccccc4cc3[nH]2)c1
inhibition: 21.5% (inactive)

molecule: CN1CCN(C(=O)C2CCCN(S(=O)(=O)c3ccccc3)C2)CC1 (centres undefined)
inhibition: 7.31% (inactive)

molecule: O=[N+]([O-])c1ccc2nc(CCCO)[nH]c2c1
inhibition: -0.4% (inactive)

molecule: CCOc1cc(/C=N/NC(=O)c2c(-c3ccccc3)noc2C)ccc1O
inhibition: 34.1% (inactive)

molecule: COc1cc(C(=O)N/N=C/c2ccc(OC(=O)c3ccccc3)c(OC)c2)ccc1O
inhibition: 23.2% (inactive)

molecule: OCCCc1nc2ccccc2[nH]1
inhibition: 13.1% (inactive)

molecule: N#C/C(=C\c1coc2ccccc2c1=O)C(N)=S
inhibition: 11.5% (inactive)

molecule: Nc1ccc2nc(CCCCc3nc4ccccc4[nH]3)[nH]c2c1
inhibition: 32.7% (inactive)

molecule: Cc1ccc2c(C)c(C(=O)N(Cc3ccc(F)cc3)C3CCS(=O)(=O)C3)oc2c1 (centres undefined)
inhibition: 7.21% (inactive)

molecule: O=C1CC(NCCN2CCOCC2)C(=O)N1Cc1ccc(N2CCCC2=O)cc1 (centres undefined)
inhibition: 2.31% (inactive)

molecule: Cc1ccc(S(=O)(=O)Cc2ccc([N+](=O)[O-])cc2)cc1
inhibition: 12.8% (inactive)

molecule: Cn1c(N)c(S(=O)(=O)N2CCCC2)c(=O)n(C)c1=O
inhibition: 8.94% (inactive)

molecule: CC1CCCC(C)N1C(=O)COC(=O)c1ccc2c(c1)OCO2 (centres undefined)
inhibition: -2.3% (inactive)

molecule: COc1cc(/C=N/NC(=O)c2cc[n+]([O-])cc2)ccc1O
inhibition: 27.9% (inactive)

molecule: Cc1cccc(Oc2ccccc2N)c1
inhibition: -2.44% (inactive)

molecule: COc1ccc(Cn2c(-c3ccc(OC)cc3)nc3c(c(=O)c4ccccc4n3C)c2=O)cc1
inhibition: 4.69% (inactive)

molecule: c1ccc2[nH]c(CCCc3nc4ccccc4[nH]3)nc2c1
inhibition: 12.5% (inactive)

molecule: CCCNCc1cc(OC)c(OCC(=O)NCCc2ccccc2)cc1Br
inhibition: 6.19% (inactive)

molecule: O=C1NN(c2ccccc2)C(=O)/C1=C\c1coc2ccc(O)cc2c1=O
inhibition: 51.3% (inactive)

molecule: O=C(CSc1nc2ccccc2s1)NCCCN1CCOCC1
inhibition: -10.3% (inactive)

molecule: COc1cc(/C=N/N(c2ccccc2)c2ccccc2)ccc1O
inhibition: 18.7% (inactive)

molecule: COc1ccc(CSc2nnc(-c3ccncc3)n2C)cc1F
inhibition: 3.25% (inactive)

molecule: c1ccc2[nH]c(CCCCc3nc4ccccc4[nH]3)nc2c1
inhibition: 5.68% (inactive)

molecule: CC(C)CN(C(=O)COC(=O)C1CC1)c1c(N)n(Cc2ccccc2)c(=O)[nH]c1=O
inhibition: 17.3% (inactive)

###

molecular target: Large T antigen (Simian virus 40) (UniProt P03070); experiment: SV40 large T antigen inhibitors, biochemical (AID 1903); details: SV40 large T antigen ATPase/helicase inhibition assay; at 20 µM; hits give high values
The whole screen tested about 310,000 compounds, of which about 1,200 (0.39%) were called active. The list is a sample of the results. Results with a measured potency or affinity are listed apart.

smiles.structure: CCCCOc1ccc(/C=C/C(=O)OCC(=O)N2CC(=O)Nc3ccccc32)cc1OCC
inhibition: 14.1% (inactive)

smiles.structure: COc1cc(/C=C/C(=O)OCC(=O)Nc2ccc(S(=O)(=O)N3CCCC3)cc2)ccc1O
inhibition: 24.6% (inactive)

smiles.structure: Nc1nc2cc(S(=O)(=O)NC3=NCCCCC3)ccc2s1
inhibition: 37.1% (inactive)

smiles.structure: O=S(=O)(Nc1ccc(Br)cc1)c1cccc2cccnc12
inhibition: 11.5% (inactive)

smiles.structure: O=S(=O)(NC1=NCCCCC1)c1ccc2ccccc2c1
inhibition: 7.96% (inactive)

smiles.structure: FC(F)(F)c1ccc(Cl)c(NC2=NCCCCC2)c1
inhibition: 7.53% (inactive)

smiles.structure: Cn1c(=O)c2c(nc(N3CCOCC3)n2CCSc2ncccn2)n(C)c1=O
inhibition: 12.4% (inactive)

smiles.structure: CNS(=O)(=O)c1cccc2cccnc12
inhibition: -1.68% (inactive)

smiles.structure: O=S(=O)(Nc1nc2c(s1)CCCC2)c1ccc2ccccc2c1
inhibition: 21.8% (inactive)

smiles.structure: O=S(=O)(Nc1ccc(Cl)cc1)c1cccc2cccnc12
inhibition: 7.28% (inactive)

smiles.structure: CCc1ccc(C(=O)OCC(=O)Nc2cccc(S(=O)(=O)NC3=NCCCCC3)c2)cc1
inhibition: 23% (inactive)
